Target: WSK-3 (Streptomyces lividans, UniProt P0A334, L24D/W26E/G43A/Q58A/T61S/R64D/L81R/V93E/S102V/G104A, form not given)
Sequence (P0A334 whole entry L24D/W26E/G43A/Q58A/T61S/R64D/L81R/V93E/S102V/G104A, looked up): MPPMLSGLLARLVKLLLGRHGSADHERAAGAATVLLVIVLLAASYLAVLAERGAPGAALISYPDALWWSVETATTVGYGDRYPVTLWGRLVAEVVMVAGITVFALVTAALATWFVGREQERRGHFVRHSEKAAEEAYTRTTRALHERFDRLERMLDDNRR
Details: read-out: Kdiss for TEA; from TEA concentration for 50% total toxin dissociation, assuming Kdiss≦2 μM for AgTx2-DNP
EXPERIMENTAL ENDPOINT: Kd

Exercise: Need Kd of CC[N+](CC)(CC)CC.[Cl-] [TEA, tetraethylammonium chloride] , thanks.
Solution: ≤ 80 mM

These data points were gathered from patent US20040215400A1.
